- Tested on: 786-0 renal
- assay.name: NCI-60 one-dose screen, 48 h (100 = growth as untreated, 0 = no growth, -100 = all killed)
- test.context: 10 µM unless noted
This is part of a sample that, as a whole, favours compounds with a hit. Of some 83,000 tested, about 20% had one in any assay.
just bin them by growth: range A = under 20%, range B = from 20% up to 90%, range C = 90% and over

molecule	category
CN1CCN(c2ccc3cc(-c4nc5ccccc5[nH]4)c(=O)oc3c2)CC1	range C
Nc1c(C(=O)c2ccc(F)cc2)sc2nc3c(cc12)CCCC3	range B
CC[C@H](C)[C@H]1NC(=O)[C@@H](N[C@](C)(O)[C@@H](N)CC(C)C)[C@@H](C)OC(=O)[C@H](Cc2ccc(OC)cc2)N(C)C(=O)[C@@H]2CCCN2C(=O)[C@H](CC(C)C)NC(=O)[C@@H](C)C(=O)[C@H](C(C)C)OC(=O)C[C@@H]1O	range A
CN(C)C/C=C/C(=O)Nc1cc2c(Nc3cccc(Cl)c3F)ncnc2cc1OCCOC(F)F	range A
CCC(c1ccc(OC)cc1)C(CC)c1ccc(O)c(CN2CCCC2)c1 (stereo not drawn)	range A
CC(C)(C)c1cc(-c2nc3ccc(N4CCN(CCO)CC4)cc3[nH]2)cc(C(C)(C)C)c1O	range B
COc1cccc(-c2nc3sccn3c2-c2ccnc(NCCCNS(=O)(=O)c3ccccc3)n2)c1	range B
CC(C(=O)n1cc(-c2ccccc2)c(-c2ccccc2)c1)c1ccccc1 (stereo not drawn)	range C
CC(C)C(C(=O)CCN(C)C)c1ccc(Cl)cc1 (stereo not drawn)	range C
COc1cc(/C=C2\CCCC3=C2NC(C)=NC3c2cc(OC)c(OC)c(OC)c2)cc(OC)c1OC (stereo not drawn)	range A
NCCSC(c1ccccc1)(c1ccccc1)c1ccccc1	range B
COc1cc(C2C=C(C)N=C3SC=C(C)N32)cc(OC)c1OC (stereo not drawn)	range A
CCC(=O)Oc1cc(/C=C/C(=O)O[C@H]2C[C@H]3CN4CCc5c([nH]c6cc(OC)ccc56)[C@@H]4C[C@@H]3[C@@H](C(=O)OC)[C@@H]2OC)ccc1OC	range B
Nc1ccc(S(=O)(=O)c2ccc(Cl)cc2)cc1	range C
COc1ccc(Cn2cc(COc3cc(/C=C/C(=O)c4cc(OC)c(OC)c(OC)c4)ccc3OC)nn2)cc1	range B
CCOC(=O)C1=C(CSC(=S)N(C2CCCCC2)C2CCCCC2)N(C)C(=O)NC1c1ccccc1 (stereo not drawn)	range B
Cc1nn(-c2ccc(Cl)cc2)c(=O)n1CCOc1ccccc1Cl	range C
CCCS(=O)(=O)c1nc(NC2CC2)cc(-c2ccc3c(ccn3C3CC(C)(C)NC(C)(C)C3)c2)n1	range A
